Where do the numbers come from? From ChEMBL document CHEMBL1201862.

Tested on: A549
Protocol Text: NCI tumour cell line growth inhibition, 48 h
Calls of active or inactive are those of the source. No stated cut-off is given here; in the data, active = GI50 up to about 1.1 µM and inactive = higher.
Result category, one only: active, inactive

Examples with answers:
INSERT INTO assay_data (compound, study_system, category) VALUES
  ('Brc1ccc(C[P+]2(c3ccccc3)CCCCC2)cc1.[O-][Cl+3]([O-])([O-])[O-]', 'A549', 'inactive'),
  ('CCN(CC)CCn1c(=O)c2ccccc2n2c3c(=O)n(C)c(=O)n(C)c3nc12', 'A549', 'active'),
  ('CC(=O)OCCOc1cc2c([nH]c3ccccc32)c(C)c2cccc1-2', 'A549', 'inactive'),
  ('O=C(NCCCCNCCCNC(=O)c1cc(-c2ccccc2)nc2ccccc12)c1cc(-c2ccccc2)nc2ccccc12', 'A549', 'inactive'),
  ('C/C(=N\NC(=S)N1CC2CCC(CC2)C1)c1nccs1', 'A549', 'active');

Exercise: How did this test come out for COc1ccccc1-n1c(C)nc2ccccc2c1=O ?
Key: inactive

Exercise: Each compound tested received a call. Report the one for C=CC/N=C1\N=C(C)C(C(=O)OCC)S1 (stereo not drawn) .
Key: inactive

Exercise: Could you kindly confirm the outcome this assay logged for O=[N+]([O-])c1ccc(Sc2c3ccccc3nc3ccccc23)nc1 ?
Key: inactive

Exercise: Fill in: this test's call for [N-]=[N+]=NC1=CC(=O)c2cccc3cccc1c23 is ___
Key: inactive

Exercise: Field: outcome | Entry: C=CCN1C(N)=C(C(N)=O)S/C1=C1/SC(=S)N(c2ccc(C)cc2)C1=O
Key: inactive
